Origin of values: the METLIN SMRT retention time set (Domingo-Almenara et al. 2019)

- Assay Details: gradient 5% acetonitrile 3 min, to 50% in 2 min, to 85% in 15 min, held 3 min, 100 µL/min
- Condition: column: Zorbax Extend-C18 2.1 x 50 mm; eluents: water / acetonitrile, 0.1% formic acid
Lab note: compare RP-LC retention time with 700 s, writing y if less and n if equal or more.

**Query** Regarding O=C(NCCc1c[nH]c2ccccc12)c1cc2cccnc2n(Cc2ccccc2)c1=O , kindly confirm whether its RP-LC retention time is beneath 700 s.
**Result** n

**Query** Confirm or reject: RP-LC retention time of CCOc1ccc2nc(NC(=O)Cn3nc(C(=O)N4CCCC4)c4ccccc43)sc2c1 lies strictly below 700 s
**Result** n

**Query** Item CCCC(=O)Nc1ccc(-n2cnc(C(=O)NC3CCCC3)c2)nc1 : RP-LC retention time beneath 700 s, strictly?
**Result** n

**Query** RP-LC retention time strictly < 700 s for this compound? COc1ccc(C(=O)Nc2nc3c(s2)CCc2cc(OC)ccc2-3)cc1
**Result** n

**Query** Lab note: RP-LC retention time threshold 700 s. Does this compound come in strictly under it? Cc1ccc(/C=C/c2nc(-c3ccc4oc(C)nc4c3)no2)o1
**Result** n

**Query** Please let me know if COc1ccc(-c2noc(C3CCCN3C(=O)NC3CCCCC3)n2)cc1 (stereo not given) shows RP-LC retention time below 700 s.
**Result** n

**Query** Take the compound O=C(c1cn(-c2cc(N3CCCCC3)ncn2)cn1)N1CCSCC1 and say whether its RP-LC retention time is less than 700 s.
**Result** n

**Query** Please determine if Cc1ccccc1Nc1c(-c2ccc(N3CCOCC3)cc2)nc2c(C)cccn12 is below 700 s in terms of RP-LC retention time.
**Result** n

**Query** Quick check: RP-LC retention time of O=C(CSc1ccc2nnc(-c3cccnc3)n2n1)NC1CCCCC1 under 700 s?
**Result** y

**Query** Take the compound Cc1c(-c2noc(-c3ccccc3F)n2)nnn1Cc1ccc(F)cc1 and say whether its RP-LC retention time is less than 700 s.
**Result** n

**Query** Could you please tell me whether RP-LC retention time recorded for CCOC(=O)c1nc(N(C)c2ccccc2CC)c2ccccc2n1 is less than 700 s?
**Result** n

**Query** Find out if reported RP-LC retention time for CCc1cc(=O)oc2cc(C)cc(OC(C)C(=O)N3CCC4(O)CCCCC4C3)c12 (stereo not given) is less than 700 s
**Result** n

**Query** Is the reported RP-LC retention time for O=C(O)c1ccc2c(c1)nc(Nc1cccc(Cl)c1)c1ccncc12 strictly below 700 s?
**Result** n

**Query** Given the entry N#CCCN1CCN(C2=NC(=O)/C(=C\c3cccs3)S2)CC1 , would its reported RP-LC retention time be below 700 s?
**Result** y

**Query** Please determine if CCOCC(=O)NCc1ccc2c(c1)CCCN2C(=O)C1CCC1 is below 700 s in terms of RP-LC retention time.
**Result** n

**Query** is_below(RP-LC retention time, 700 s) for COc1ccc(CNC(=O)CN2CCc3[nH]c4c(C)cc(C)cc4c(=O)c3C2)cc1 ?
**Result** y

**Query** Is it true that RP-LC retention time reported for CC1CCCCN1S(=O)(=O)c1ccc2nc(N3CCN(c4ccccc4F)CC3)ccc2c1 (stereo not given) is less than 700 s?
**Result** n

**Query** Report whether reported RP-LC retention time is lower than 700 s (strictly) for O=C(NCc1ccccc1)C1CCN(C(=O)c2ncn3c2COC(c2ccc(Cl)cc2)C3)CC1 (stereo not given)
**Result** n

**Query** Find out if reported RP-LC retention time for COc1ccc2c(c1)C1(CCN(C(=O)c3ccc(F)c(F)c3)C1)C(=O)N2C (stereo not given) is less than 700 s
**Result** y
